Experiment: Therapeutic index for gastrointestinal toxicity in Lewis rat adjuvant arthritis model
Conditions: read-out: TI
MEASURED_PROPERTY: selectivity ratio

# input Give selectivity ratio for the following compound: COc1c(C)c2c(c(O)c1C/C=C(\C)CCC(=O)OCCN1CCOCC1)C(=O)OC2 [MYCOPHENOLATE MOFETIL]
# output 6.9

====

Biological target: Cytochrome P450 1A2 (Homo sapiens)
Sequence (P05177 whole entry): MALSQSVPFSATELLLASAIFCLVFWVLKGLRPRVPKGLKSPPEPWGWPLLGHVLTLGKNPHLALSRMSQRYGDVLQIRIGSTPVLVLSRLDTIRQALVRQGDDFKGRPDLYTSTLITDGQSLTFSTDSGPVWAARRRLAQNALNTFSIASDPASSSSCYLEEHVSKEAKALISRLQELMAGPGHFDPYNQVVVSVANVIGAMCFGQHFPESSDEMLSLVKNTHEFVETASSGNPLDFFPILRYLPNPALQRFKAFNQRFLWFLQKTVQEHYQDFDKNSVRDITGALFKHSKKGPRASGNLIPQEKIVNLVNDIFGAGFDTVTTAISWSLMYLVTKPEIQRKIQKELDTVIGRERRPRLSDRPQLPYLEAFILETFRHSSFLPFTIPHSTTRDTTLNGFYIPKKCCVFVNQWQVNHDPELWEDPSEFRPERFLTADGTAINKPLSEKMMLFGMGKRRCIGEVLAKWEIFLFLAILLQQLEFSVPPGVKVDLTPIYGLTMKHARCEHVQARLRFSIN
Assay: Inhibition of CYP1A2
Type: ADME
MEASURED_PROPERTY: IC50

# input Give IC50 for the following compound: CCN1CCN(c2ccc(C(C)(C)NC(=O)c3cc4[nH]c5ccccc5c(=O)c4cc3F)cn2)CC1
# output > 20 µM

====

Assay: Cmax in rat at 10 mg/kg, po
Assay type: ADME, organism-based
Design: dose 10 mg/kg, route oral
Conditions: in vivo
MEASURED_PROPERTY: Cmax (nM)
Give the quantity in nM, number only.

# input Give Cmax for the following molecule: CCN1CCN(c2ccc(C(C)(C)NC(=O)c3cc4[nH]c5ccccc5c(=O)c4cc3F)cn2)CC1
# output 410

====

Test: Clearance in rats at 2 mg/kg, iv
Type: ADME, organism-based
Design: dose 2 mg/kg, route intravenous
Settings: rat, in vivo
MEASURED_PROPERTY: clearance (mL/min/kg)
Give the quantity in mL/min/kg, number only.

# input Give clearance for the following compound: CCN1CCN(c2ccc(C(C)(C)NC(=O)c3cc4[nH]c5ccccc5c(=O)c4cc3F)cn2)CC1
# output 29

====

Target: Cytochrome P450 2C9 (Homo sapiens, UniProt P11712)
Sequence (P11712 whole entry): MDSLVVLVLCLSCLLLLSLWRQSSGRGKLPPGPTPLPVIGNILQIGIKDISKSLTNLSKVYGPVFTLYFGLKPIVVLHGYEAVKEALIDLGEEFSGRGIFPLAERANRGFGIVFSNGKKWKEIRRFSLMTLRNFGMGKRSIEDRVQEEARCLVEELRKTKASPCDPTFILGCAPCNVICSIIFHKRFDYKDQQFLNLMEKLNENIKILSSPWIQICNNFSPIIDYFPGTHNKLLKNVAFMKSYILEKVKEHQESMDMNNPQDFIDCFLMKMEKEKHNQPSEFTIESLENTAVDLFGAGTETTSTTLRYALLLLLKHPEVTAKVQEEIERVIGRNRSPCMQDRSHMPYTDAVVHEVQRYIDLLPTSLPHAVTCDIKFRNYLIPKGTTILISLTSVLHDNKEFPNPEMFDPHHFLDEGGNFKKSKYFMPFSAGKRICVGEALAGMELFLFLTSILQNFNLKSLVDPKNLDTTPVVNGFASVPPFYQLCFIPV
MEASURED_PROPERTY: IC50

# input Give IC50 for the following compound: CCN1CCN(c2ccc(C(C)(C)NC(=O)c3cc4[nH]c5ccccc5c(=O)c4cc3F)cn2)CC1
# output > 20 µM

====

MEASURED_PROPERTY: IC50

# input Fill in: IC50 on Cytochrome P450 2D6 (Homo sapiens), entry CCN1CCN(c2ccc(C(C)(C)NC(=O)c3cc4[nH]c5ccccc5c(=O)c4cc3F)cn2)CC1
# Sequence (P10635 whole entry): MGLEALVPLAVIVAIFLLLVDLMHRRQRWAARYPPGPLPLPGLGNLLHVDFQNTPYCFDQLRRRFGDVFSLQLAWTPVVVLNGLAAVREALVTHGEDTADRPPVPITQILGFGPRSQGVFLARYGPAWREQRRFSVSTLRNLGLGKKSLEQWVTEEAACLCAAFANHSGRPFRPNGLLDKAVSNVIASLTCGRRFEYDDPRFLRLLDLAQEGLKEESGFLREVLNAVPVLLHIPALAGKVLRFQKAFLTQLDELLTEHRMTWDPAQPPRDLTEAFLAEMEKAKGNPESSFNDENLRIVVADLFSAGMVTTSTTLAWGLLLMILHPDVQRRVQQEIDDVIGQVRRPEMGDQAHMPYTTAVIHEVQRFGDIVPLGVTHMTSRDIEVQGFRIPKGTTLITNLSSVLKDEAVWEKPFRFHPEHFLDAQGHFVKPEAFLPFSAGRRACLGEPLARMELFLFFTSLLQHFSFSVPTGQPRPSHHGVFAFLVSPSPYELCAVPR
# output > 20 µM

====

Assay: Half life in rat at 2 mg/kg, iv
Assay type: ADME, organism-based
Design: dose 2 mg/kg, route intravenous
Conditions: in vivo
MEASURED_PROPERTY: half-life (h)
Give the quantity in h, number only.

# input Give half-life for the following compound: CCN1CCN(c2ccc(C(C)(C)NC(=O)c3cc4[nH]c5ccccc5c(=O)c4cc3F)cn2)CC1
# output 3.6

====

Test system: Rattus norvegicus
Test: Tmax in rat at 10 mg/kg, po
Format: ADME, organism-based
Set-up: dose 10 mg/kg, route oral
Settings: in vivo
MEASURED_PROPERTY: Tmax (h)
Give the quantity in h, number only.

# input Give Tmax for the following molecule: CCN1CCN(c2ccc(C(C)(C)NC(=O)c3cc4[nH]c5ccccc5c(=O)c4cc3F)cn2)CC1
# output 4

====

MEASURED_PROPERTY: pIC50
Reminder that pIC50 means the negative base-10 logarithm of the concentration expressed in mol/L.

# input Fill in: pIC50 on Cytochrome P450 2C19 (Homo sapiens), entry CCN1CCN(c2ccc(C(C)(C)NC(=O)c3cc4[nH]c5ccccc5c(=O)c4cc3F)cn2)CC1
# Sequence (P33261 whole entry): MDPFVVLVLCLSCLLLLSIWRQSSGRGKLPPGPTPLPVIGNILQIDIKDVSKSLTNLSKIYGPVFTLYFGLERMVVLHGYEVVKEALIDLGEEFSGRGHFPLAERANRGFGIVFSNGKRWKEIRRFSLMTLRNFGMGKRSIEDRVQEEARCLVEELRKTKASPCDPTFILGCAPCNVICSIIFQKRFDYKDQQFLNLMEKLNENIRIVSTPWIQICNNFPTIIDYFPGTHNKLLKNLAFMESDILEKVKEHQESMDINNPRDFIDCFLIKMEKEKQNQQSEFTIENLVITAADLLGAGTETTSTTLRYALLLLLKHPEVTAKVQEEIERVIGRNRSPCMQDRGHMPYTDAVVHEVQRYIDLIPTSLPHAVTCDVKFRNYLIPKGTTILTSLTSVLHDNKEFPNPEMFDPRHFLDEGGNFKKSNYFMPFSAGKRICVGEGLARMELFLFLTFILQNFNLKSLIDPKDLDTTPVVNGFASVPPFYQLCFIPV
# output 4.72

====

Experiment: Mean residence time in rat at 2 mg/kg, iv
Assay type: ADME, organism-based
Set-up: dose 2 mg/kg, route intravenous
Details: in vivo
MEASURED_PROPERTY: MRT
Quote the value and follow it with the unit of measurement.

# input Give MRT for the following compound: CCN1CCN(c2ccc(C(C)(C)NC(=O)c3cc4[nH]c5ccccc5c(=O)c4cc3F)cn2)CC1
# output 4.4 h
